# System: rodent lifetime carcinogenesis bioassay, tumor incidence TD50
# Protocol Summary: carcinogenic potency in animals, long-term in vivo studies, CPDB compilation (AID 1745844)
# Condition Label: rat; strain Fischer 344; males; in drinking water; site: thyroid gland; lesion: follicular-cell adenoma + follicular-cell carcinoma; dosed 97 weeks; study length 97 weeks
Measured Metric: TD50 (mg/kg/day)

structure_string=COc1cc(-c2ccc(N=Nc3c(S(=O)(=O)O)cc4cc(S(=O)(=O)O)cc(N)c4c3O)c(OC)c2)ccc1N=Nc1c(S(=O)(=O)O)cc2cc(S(=O)(=O)O)cc(N)c2c1O units_text=mg/kg/day recorded_value=103

---

# Test system: rodent lifetime carcinogenesis bioassay, tumor incidence TD50
# Protocol Summary: carcinogenic potency in animals, long-term in vivo studies, CPDB compilation (AID 1745844)
# Condition Label: mouse; strain B6C3F1; males; in feed; site: liver; lesion: hepatocellular adenoma; dosed 80 weeks; study length 90 weeks
Measured Metric: TD50

structure_string=Cc1c([N+](=O)[O-])c(C)c([N+](=O)[O-])c(C(C)(C)C)c1[N+](=O)[O-] recorded_value="232 mg/kg/day"

---

# System: rodent lifetime carcinogenesis bioassay, tumor incidence TD50
# Protocol Summary: carcinogenic potency in animals, long-term in vivo studies, CPDB compilation (AID 1745844)
# Condition Label: mouse; strain B6C3F1; males; by gavage; site: liver; lesion: hepatocellular adenoma + hepatocellular carcinoma + neoplastic nodule; dosed 26 weeks; study length 131 weeks
Measured Metric: TD50 (mg/kg/day)

structure_string=Brc1cc(Br)c(-c2cc(Br)c(Br)cc2Br)cc1Br measured_metric=TD50 recorded_value=0.285

---

# System: rodent lifetime carcinogenesis bioassay, tumor incidence TD50
# Protocol Summary: carcinogenic potency in animals, long-term in vivo studies, CPDB compilation (AID 1745844)
# Condition Label: rat; strain Fischer 344; males; in feed; site: subcutaneous tissue; lesion: fibroma; dosed 12 weeks; study length 103 weeks
Measured Metric: TD50 (mg/kg/day)

structure_string=OCC(CO)(CBr)CBr measured_metric=TD50 units_text=mg/kg/day recorded_value=111

---

# Test system: rodent lifetime carcinogenesis bioassay, tumor incidence TD50
# Protocol Summary: carcinogenic potency in animals, long-term in vivo studies, CPDB compilation (AID 1745844)
# Condition Label: mouse; strain B6C3F1; females; in drinking water; site: all sites; lesion: hemangioma; dosed 104 weeks; study length 104 weeks
Measured Metric: TD50 (mg/kg/day)

structure_string=c1ccncc1 units_text=mg/kg/day recorded_value=868

---

# Test system: rodent lifetime carcinogenesis bioassay, tumor incidence TD50
# Protocol Summary: carcinogenic potency in animals, long-term in vivo studies, CPDB compilation (AID 1745844)
# Condition Label: rat; strain Wistar; males; in drinking water; site: all sites; lesion: lymphoma and leukemia, combined; dosed 104 weeks; study length 104 weeks
Measured Metric: TD50

compound="O=C1OC(O)C(C(Cl)Cl)=C1Cl (stereo unspecified)" recorded_value="53.1 mg/kg/day"

---

# Tested on: rodent lifetime carcinogenesis bioassay, tumor incidence TD50
# Protocol Summary: carcinogenic potency in animals, long-term in vivo studies, CPDB compilation (AID 1745844)
# Condition Label: rat; strain Fischer 344; females; in feed; site: thyroid gland; lesion: several types; types named in the paper; dosed 83 weeks; study length 86 weeks
Measured Metric: TD50

structure_string=COc1ccc(N)cc1N recorded_value="162 mg/kg/day"
